Field: pEC50. Provide a value for each of the sequences that follow.
test system: miR-17; test: miR-17 PD-Sig in mouse kidney cell lines; type: cell-based; conditions: mIMCD3, mouse, Normal
Give bare numbers, as −log10 of the molar value.

Please report pEC50 for every entry that follows.
1. ASGSCMAFCFUFUMUSUS [RG-NG-1017]
2. ASGSCMAFCFUFUMUSCS [RG-NG-1016]
3. ASGSCMAFCFUFUMUSAS [RG-NG-1015]

6.87
6.83
6.77

----------
Field: % Inhibition @ 0.1 uM. Provide a value for each of the sequences that follow.
system: AMPA-R; assay: [3H]AMPA radioligand binding assay on rat brain synaptic membranes; conditions: Experiment #1, 0.1 uM;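 further: competition binding in which test compounds at rising concentrations displace [3H]AMPA from AMPA-R on rat brain synaptic membranes, with reduced bound radioligand as read-out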

Solved entries:
macromolecule.sequence	tested.target	% Inhibition @ 0.1 uM
ASGSCMAFCFUFUMUSGS [RGLS4326, reference compound]	AMPA-R	17.6%
ASCSAMAFUFGFCMASCS [RG5124, reference compound]	AMPA-R	0.4%
USASAMGCSASCSUMUMUSGS (antisense UAAGCACUUUG; cEt at 1, 2, 5, 6, 7, 10, 11, 2'-O-methyl at 3, 8, 9, other sugars and backbone not given here) [RG-NG-1005]	AMPA-R	10.8%
ASGSCSASCSUSUSUSGS [RG-NG-1001]	AMPA-R	41.1%
ASGSCSASCSUSUSUS [RG-NG-1002]	AMPA-R	0%

Please report % Inhibition @ 0.1 uM for every entry that follows.
1. USASASGSCSASCSUSUSUSGS [RG-NG-1004]
2. ALGLCLALCLTLTLTLGL [RG-NG-1006]
3. ASGSCMASCMUSUMUSGS [RG-NG-1003]

["−4.7%", "6.7%", "5.7%"]

Hey, just so you know, these numbers are from patent US12559750B2.
